Could you please report measured viability, T/C for the items listed next?
- Test system: 485176-168-R4-J1-PDC spheroids with HUVEC/MSC, viability;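 further: spheroids exposed to compounds for seven days before readout; percent viability relative to DMSO vehicle control wells as 100%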
- assayInfo: Anticancer human tumor 485176-168-R4-J1-PDC patient-derived pancreatic adenocarcinoma cell line growth inhibition [GQUAD]
- experimentalSetup: second compound 10 µM; first compound 3.16 µM; hits give low values
Report only the number, with the unit % understood.

Entry under test: CC1COCCN1c1cc(C2(O)CC3CCC(C2)O3)c2cnn(-c3ccn[nH]3)c2n1 (stereo not drawn) + CN(C)c1ccc(Nc2c3ccc(NC(=O)CCN4CCCC4)cc3nc3cc(NC(=O)CCN4CCCC4)ccc23)cc1 . Its viability, T/C was 9.48

Entry under test: O=C(c1cc(Cc2n[nH]c(=O)c3ccccc23)ccc1F)N1CCN(C(=O)C2CC2)CC1 + Cc1[nH]c2ccc(F)cc2c1-c1nc2c3cccnc3c3ncccc3c2[nH]1 . Its viability, T/C was 80

Entry under test: CC(=O)O[C@H]1C(=O)[C@@]2(C)[C@H]([C@H](OC(=O)c3ccccc3)[C@]3(O)C[C@H](OC(=O)[C@H](O)[C@@H](NC(=O)c4ccccc4)c4ccccc4)C(C)=C1C3(C)C)[C@]1(OC(C)=O)CO[C@@H]1C[C@@H]2O + Cc1[nH]c2ccc(F)cc2c1-c1nc2c3cccnc3c3ncccc3c2[nH]1 . Its viability, T/C was 11.1
